Measured TR-FRET signal of individual entries
target: MAGE-A11:PCF11 (Homo sapiens (Human), UniProt P43364); assay: TR-FRET single point screening at 15 μM; type: binding; design: unit not given here; details: single point TR-FRET screening of quinoline compounds against MAGE-A11:PCF11; 15 μM
Sequence (P43364 218-429): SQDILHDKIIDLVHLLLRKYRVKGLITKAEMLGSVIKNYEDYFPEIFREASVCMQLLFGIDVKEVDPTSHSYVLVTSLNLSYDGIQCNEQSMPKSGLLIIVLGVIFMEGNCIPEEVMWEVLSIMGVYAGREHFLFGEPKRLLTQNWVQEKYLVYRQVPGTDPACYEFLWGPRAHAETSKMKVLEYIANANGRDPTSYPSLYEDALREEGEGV
Give the figure only, with no unit attached.

| compound | TR-FRET signal |
| --- | --- |
| Cc1ccc(CN(CCCNc2ccnc3cc(Cl)ccc23)Cc2ccccc2)s1 | 4.629 |
| CCOC(=O)c1ccc2ncc(C(=O)OCC)c(NCCCN3CCOCC3)c2c1 | 11.26 |
| CCCN(CCCNc1ccnc2cc(C(F)(F)F)ccc12)CC1CCOC1 (centres unmarked) | 1.787 |

Please give the measured TR-FRET signal for this compound: `CCCN(CCCNc1c2ccc(Cl)cc2nc2ccc(OC)cc12)Cc1cc(Br)cs1` −56.7

Value lookup for TR-FRET signal; key = `CCCN(CCCNc1ccnc2cc(C(F)(F)F)ccc12)Cc1ccccc1O` 26.5
